Reported EC50 is given for each of the following molecules.
Molecular target: hSTING H232 (Homo sapiens)
Assay: THP1-Dual KI-hSTING-H232 reporter assay (IRF pathway, secreted Lucia luciferase)
Format: cell-based
Parameters: host or cells: THP1-Dual KI-hSTING-H232 (from THP1-Dual KO-STING)
Conditions: THP1-Dual KI-hSTING-H232 cells, 24 hours; read-out: Reporter assay EC50 (nM) THP-1-H232
Method: The activities of the STING agonists to activate human or mouse STING pathways were evaluated in THP-1-Dual™, THP1-Dual™ KI-hSTING-R232, THP1-Dual™ KI-hSTING-H232 Cells and THP1-Dual™ KI-mSTING Cells. […] Stimulating these reporter cells with a STING agonist activates TRF pathway and induces the production of a secreted Lucia luciferase in the cell culture medium, which can be determined using QUANTI-Luc™ reagent. […]

Illustrative cases are given below, each with its answer.
MOLECULE	EC50
CCc1nc(C)oc1C(=O)Nc1nc2cc(C(N)=O)cc(OCCCN3CC4(C3)CN(C(=O)[C@H](CC(C)C)NC)CCO4)c2n1C/C=C/Cn1c(NC(=O)c2cc(C)nn2CC)nc2cc(C(N)=O)cc(OC)c21 [Compound 19]	50 to 150 nM
CCc1nc(C)oc1C(=O)Nc1nc2cc(C(N)=O)cc(OCCCN3CC4(C3)CN(C(=O)[C@@H](N)CC(C)C)CCO4)c2n1C/C=C/Cn1c(NC(=O)c2cc(C)nn2CC)nc2cc(C(N)=O)cc(OC)c21 [Compound 17]	≤ 50 nM

I am curious: what EC50 value has been reported for CCc1nc(C)oc1C(=O)Nc1nc2cc(C(N)=O)cc(OCCCN3CC4(CNCCO4)C3)c2n1C/C=C/Cn1c(NC(=O)c2cc(C)nn2CC)nc2cc(C(N)=O)cnc21 [Compound 23] ?
≤ 50 nM

Next molecule: CCc1nc(C)oc1C(=O)Nc1nc2cc(C(N)=O)cnc2n1C/C=C/Cn1c(NC(=O)c2oc(C)nc2CC)nc2cc(C(N)=O)cc(OCCCO)c21 [Reference Compd B, reference compound]
≤ 50 nM

Moving on to the next molecule: CCn1nc(C)cc1C(=O)Nc1nc2cc(C(N)=O)cc(OC)c2n1C/C=C/Cn1c(NC(=O)Cc2cc(C)nn2C)nc2cc(C(N)=O)cc(OCCCN3CC4(CNCCO4)C3)c21 [Compound 8]
> 150 nM

====

Target: mSTING (Mus musculus)
Sequence (Q3TBT3 1-378): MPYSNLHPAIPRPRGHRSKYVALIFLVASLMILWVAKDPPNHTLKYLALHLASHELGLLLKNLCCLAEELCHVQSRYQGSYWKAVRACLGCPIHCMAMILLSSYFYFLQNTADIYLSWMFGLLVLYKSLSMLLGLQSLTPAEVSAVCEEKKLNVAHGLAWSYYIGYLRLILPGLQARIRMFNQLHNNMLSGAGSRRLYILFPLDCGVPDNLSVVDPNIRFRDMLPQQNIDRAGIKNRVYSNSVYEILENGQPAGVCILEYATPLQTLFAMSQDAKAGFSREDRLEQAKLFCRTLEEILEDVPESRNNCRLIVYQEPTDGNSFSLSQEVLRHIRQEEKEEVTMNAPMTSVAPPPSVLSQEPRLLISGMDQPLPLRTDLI
Experiment: 293-mSTING reporter assay
Format: cell-based
// EC50 lookup, one value per entry

Endpoint output: EC50 of `CCn1nc(C)cc1C(=O)Nc1nc2cc(C(N)=O)ccc2n1C/C=C/Cn1c(NC(=O)c2cc(C)nn2CC)nc2cc(C(N)=O)cc(OCCCN3CC4(C3)CN(C(=O)CON)CCO4)c21` . Value?
> 150 nM

====

target: hSTING H232 (Homo sapiens, UniProt Q86WV6); test: THP1-Dual KI-hSTING-H232 reporter assay (IRF pathway, secreted Lucia luciferase); format: cell-based; parameters: host or cells: THP1-Dual KI-hSTING-H232 (from THP1-Dual KO-STING); details: THP1-Dual KI-hSTING-H232 cells, 24 hours; read-out: Reporter assay EC50 (nM) THP-1-H232
Sequence (Q86WV6 whole entry): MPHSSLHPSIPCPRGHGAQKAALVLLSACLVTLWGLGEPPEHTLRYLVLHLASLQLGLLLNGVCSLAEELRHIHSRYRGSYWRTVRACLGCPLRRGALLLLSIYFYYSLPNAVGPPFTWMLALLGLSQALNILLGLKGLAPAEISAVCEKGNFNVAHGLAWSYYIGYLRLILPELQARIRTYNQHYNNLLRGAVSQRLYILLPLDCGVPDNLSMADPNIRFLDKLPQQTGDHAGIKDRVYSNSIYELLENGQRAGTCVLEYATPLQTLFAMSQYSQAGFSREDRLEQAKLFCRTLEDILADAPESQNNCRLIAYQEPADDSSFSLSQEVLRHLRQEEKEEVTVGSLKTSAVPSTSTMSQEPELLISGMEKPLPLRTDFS
Form field: EC50 (one value per entry).

A selection of reference data follows.
COMPOUND	EC50
CCn1nc(C)cc1C(=O)Nc1nc2cc(C(N)=O)cc(OC)c2n1C/C=C/Cn1c(NC(=O)c2cc(C)nn2CC)nc2cc(C(N)=O)cc(OCCCN3CCC(c4nnc5n4CCNC5)CC3)c21 [Compound 4]	> 150 nM
CCn1nc(C)cc1C(=O)Nc1nc2cc(C(N)=O)ccc2n1C/C=C/Cn1c(NC(=O)c2cc(C)nn2CC)nc2cc(C(N)=O)cc(OCCCN3CC4(C3)CN(C(=O)CN)CCO4)c21 [Compound 3]	50 to 150 nM
CCc1cc(C(=O)Nc2nc3cc(C(N)=O)cc(OCCCN4CC5(CNCCO5)C4)c3n2C/C=C/Cn2c(NC(=O)c3cc(C)nn3CC)nc3cc(C(N)=O)cc(OC)c32)n(C)n1 [Compound 15]	> 150 nM

Which EC50 value is on record for CCn1nc(C)cc1C(=O)Nc1nc2cc(C(N)=O)cc3c2n1C/C=C/Cn1c(NC(=O)c2cc(C)nn2CC)nc2cc(C(N)=O)cc(c21)OCC1(CNC1)CO3 [Compound 24] ?
50 to 150 nM

Then what about the compound CCc1nc(C)oc1C(=O)Nc1nc2cc(C(N)=O)cc3c2n1C/C=C/Cn1c(NC(=O)c2oc(C)nc2CC)nc2cc(C(N)=O)cc(c21)OCC1(CNC1)CO3 [Compound 25] ?
≤ 50 nM

====

target: hSTING-HAQ haplotype (Homo sapiens, UniProt Q86WV6, G230A/H232R/R293Q/R71H); construct: host or cells: THP-1-Dual; experiment: THP-1-Dual reporter assay (endogenous hSTING-HAQ); format: cell-based; conditions: THP-1-Dual cells (hSTING-HAQ), 24 hours
Sequence (Q86WV6 whole entry R71H/G230A/H232R/R293Q): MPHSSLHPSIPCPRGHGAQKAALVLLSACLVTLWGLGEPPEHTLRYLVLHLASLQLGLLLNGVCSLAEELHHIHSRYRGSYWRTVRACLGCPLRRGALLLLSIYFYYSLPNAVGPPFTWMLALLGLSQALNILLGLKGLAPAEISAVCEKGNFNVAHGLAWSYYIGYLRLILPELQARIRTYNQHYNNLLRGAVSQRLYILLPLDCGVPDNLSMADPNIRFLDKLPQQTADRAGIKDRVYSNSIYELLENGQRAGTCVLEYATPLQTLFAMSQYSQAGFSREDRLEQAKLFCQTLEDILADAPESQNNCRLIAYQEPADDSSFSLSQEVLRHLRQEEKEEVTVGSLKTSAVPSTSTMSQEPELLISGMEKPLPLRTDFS
READOUT NAME: EC50

Please review the entries below; each comes with its answer.
COMPOUND	OBSERVED VALUE
CCn1nc(C)cc1C(=O)Nc1nc2cc(C(N)=O)ccc2n1C/C=C/Cn1c(NC(=O)c2cc(C)nn2CC)nc2cc(C(N)=O)cc(OCCCN3CC4(C3)CN(C(=O)[C@@H](N)CC(C)C)CCO4)c21 [Compound 2]	50 to 150 nM
CCn1nc(C)cc1C(=O)Nc1nc2cc(C(N)=O)cc(OC)c2n1C/C=C/Cn1c(NC(=O)Cc2cc(C)nn2C)nc2cc(C(N)=O)cc(OCCCN3CC4(CNCCO4)C3)c21 [Compound 8]	> 150 nM
CCn1nc(C)cc1C(=O)Nc1nc2cc(C(N)=O)cc(OC)c2n1C/C=C/Cn1c(NC(=O)c2ccnn2CC)nc2cc(C(N)=O)cc(OCCCN3CC4(CNCCO4)C3)c21 [Compound 14]	≤ 50 nM
CCn1nc(C)cc1C(=O)Nc1nc2cc(C(N)=O)cc(OC)c2n1C/C=C/Cn1c(NC(=O)c2cc(C)nn2C)nc2cc(C(N)=O)cc(OCCCN3CC4(CNCCO4)C3)c21 [Compound 13]	≤ 50 nM

Param item = CCn1nc(C)cc1C(=O)Nc1nc2cc(C(N)=O)cc(OC)c2n1C/C=C/Cn1c(NC(=O)c2cn(C)nc2CN)nc2cc(C(N)=O)cc(OCCCN3CC4(CCCCO4)C3)c21 [Compound 63] ; retrieve measured EC50.
> 150 nM

====

tested on: TROP2 positive NCI-H292 Cells; assay: Cytokine release from cancer cells (MSD); type: cell-based, human; details: Homo sapiens, 120 hours, read-out: IL-6 Release EC50
pEC50: −log10 of the molar value.
READOUT NAME: pEC50

COMPOUND	TEST TARGET	pEC50
CC[C@@]1(O)C(=O)OCc2c1cc1n(c2=O)Cc2c-1nc1cc(F)c(C)c3c1c2[C@@H](N)CC3 [Exatecan, reference compound]	TROP2 positive NCI-H292 Cells	7.83
CCn1nc(C)cc1C(=O)Nc1nc2cc(C(N)=O)cc(OC)c2n1C/C=C/Cn1c(NC(=O)c2cc(C)nn2CC)nc2cc(C(N)=O)cc(OCCCN3CCC(c4nnc5n4CCNC5)CC3)c21 [Compound 4]	TROP2 positive NCI-H292 Cells	< 7.00

Let us examine a further case.
Any idea what pEC50 came out for CCn1nc(C)cc1C(=O)Nc1nc2cc(C(N)=O)ccc2n1C/C=C/Cn1c(NC(=O)c2cc(C)nn2CC)nc2cc(C(N)=O)cc(OCCCN3CC4(CNCCO4)C3)c21 [Compound 1] on TROP2 positive NCI-H292 Cells?
< 7.00

====

target: hSTING-R232 (Homo sapiens, UniProt Q86WV6, H232R); construct: host or cells: THP1-Dual KI-hSTING-R232 (from THP1-Dual KO-STING); test: THP1-Dual KI-hSTING-R232 reporter assay (IRF pathway, secreted Lucia luciferase); type: cell-based; settings: THP1-Dual KI-hSTING-R232 cells, 24 hours; read-out: Reporter assay EC50 (nM) THP-1-R232
Sequence (Q86WV6 whole entry H232R): as the sequence (Q86WV6 whole entry) above, with H232R counted along it
Reported EC50 by item:

Solved cases below.
MOLECULE	EC50
CCn1nc(C)cc1C(=O)Nc1nc2cc(C(N)=O)cc3c2n1C/C=C/Cn1c(NC(=O)c2cc(C)nn2CC)nc2cc(C(N)=O)cc(c21)OCC1(CNC1)CO3	≤ 50 nM
CCc1nc(C)oc1C(=O)Nc1nc2cc(C(N)=O)cnc2n1C/C=C/Cn1c(NC(=O)c2oc(C)nc2CC)nc2cc(C(N)=O)cc(OCCCO)c21 [Reference Compd B, reference compound]	≤ 50 nM

Which EC50 is reported for this molecule? `CCn1nc(C)cc1C(=O)Nc1nc2cc(C(N)=O)cc(OC)c2n1C/C=C/Cn1c(NC(=O)c2cc(C)nn2CC)nc2cc(C(N)=O)cc(OCCCN3CC4(CNCCO4)C3)c21`
≤ 50 nM

Then what about the molecule CCn1nc(C)cc1C(=O)Nc1nc2cc(C(N)=O)ccc2n1C/C=C/Cn1c(NC(=O)c2cc(C)nn2CC)nc2cc(C(N)=O)cc(OCCCN3CC4(C3)CN(C(=O)CON=C(C)c3ccc(C[C@H](N)C(=O)O)cc3)CCO4)c21 (racemic) ?
> 150 nM

Could you do the same for `CCc1nc(C)oc1C(=O)Nc1nc2cc(C(N)=O)cc(OCCCN3CC4(C3)CN(C(=O)[C@H](N)CC(C)C)CCO4)c2n1C/C=C/Cn1c(NC(=O)c2cc(C)nn2CC)nc2cc(C(N)=O)cc(OC)c21` , please?
≤ 50 nM
